The origin of these recorded values is patent US20250186541A1.

# Study System: T1, Biotinylated human DLL3 (human, UniProt Q9NYJ7 27-492, biotinylated (site not stated))
# T1 construct: also called Delta-like ligand 3; Delta Like Canonical Notch Ligand 3
# T1 sequence (looked up): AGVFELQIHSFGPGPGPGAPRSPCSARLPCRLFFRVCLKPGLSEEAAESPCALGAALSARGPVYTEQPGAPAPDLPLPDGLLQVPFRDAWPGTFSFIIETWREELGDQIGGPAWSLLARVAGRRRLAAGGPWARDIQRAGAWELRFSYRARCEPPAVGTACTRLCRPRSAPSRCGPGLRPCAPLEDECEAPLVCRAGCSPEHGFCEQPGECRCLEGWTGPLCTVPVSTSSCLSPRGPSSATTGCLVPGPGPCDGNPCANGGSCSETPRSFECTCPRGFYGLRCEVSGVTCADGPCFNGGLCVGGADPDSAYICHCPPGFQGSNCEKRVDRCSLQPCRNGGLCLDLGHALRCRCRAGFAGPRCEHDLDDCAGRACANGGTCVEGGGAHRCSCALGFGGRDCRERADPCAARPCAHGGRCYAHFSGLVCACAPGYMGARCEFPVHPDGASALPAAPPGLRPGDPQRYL
# Experiment Description: SPR, biotin-hDLL3 on SA chip
pKd: −log10 of the molar value. Numbered stars: 1 amine (or outer) side, 2 acyl side, 3 side chain; on linkers, the order of the positions; unused ones are H or OH. Bridge positions count the residues as written; N and C are the ends. Square brackets hold non-standard residues; d marks the D form. Side chains are listed from the residue outwards. * marks the point of attachment. DOTA = O=C(O)CN1CCN(CC(=O)O)CCN(CC(=O)*)CCN(CC(=O)O)CC1; Phe(4-CF3) = N[C@@H](Cc1ccc(C(F)(F)F)cc1)C(=O)O; γGlu = O=C(O)[C@H](CCC(=O)[*:2])N[*:1]; hPhe = N[C@@H](CCc1ccccc1)C(=O)O; dNMeA = CN[C@H](C)C(=O)O
Quantity Kind: pKd

Worked examples follow.
Exercise: Give the measured pKd of Ac-MS[dA]CWLQWNCPFD-NH2 (disulfide 4-10; SMILES CSCC[C@H](NC(C)=O)C(=O)N[C@@H](CO)C(=O)N[C@H](C)C(=O)N[C@H]1CSSC[C@@H](C(=O)N2CCC[C@H]2C(=O)N[C@@H](Cc2ccccc2)C(=O)N[C@@H](CC(=O)O)C(N)=O)NC(=O)[C@H](CC(N)=O)NC(=O)[C@H](Cc2c[nH]c3ccccc23)NC(=O)[C@H](CCC(N)=O)NC(=O)[C@H](CC(C)C)NC(=O)[C@H](Cc2c[nH]c3ccccc23)NC1=O) [Cpd #10] .
Solution: 6.94

Exercise: Give the measured pKd of Ac-MSDCWLQ[hPhe]NCPFD[dK](DOTA)-NH2 (disulfide 4-10; SMILES CSCC[C@H](NC(C)=O)C(=O)N[C@@H](CO)C(=O)N[C@@H](CC(=O)O)C(=O)N[C@H]1CSSC[C@@H](C(=O)N2CCC[C@H]2C(=O)N[C@@H](Cc2ccccc2)C(=O)N[C@@H](CC(=O)O)C(=O)N[C@H](CCCCNC(=O)CN2CCN(CC(=O)O)CCN(CC(=O)O)CCN(CC(=O)O)CC2)C(N)=O)NC(=O)[C@H](CC(N)=O)NC(=O)[C@H](CCc2ccccc2)NC(=O)[C@H](CCC(N)=O)NC(=O)[C@H](CC(C)C)NC(=O)[C@H](Cc2c[nH]c3ccccc23)NC1=O) [Cpd #63] .
Solution: 7.51

Exercise: Give the measured pKd of Ac-MSDCWLQWNC[dNMeA]FD[dK](DOTA)-NH2 (disulfide 4-10; SMILES CSCC[C@H](NC(C)=O)C(=O)N[C@@H](CO)C(=O)N[C@@H](CC(=O)O)C(=O)N[C@H]1CSSC[C@@H](C(=O)N(C)[C@H](C)C(=O)N[C@@H](Cc2ccccc2)C(=O)N[C@@H](CC(=O)O)C(=O)N[C@H](CCCCNC(=O)CN2CCN(CC(=O)O)CCN(CC(=O)O)CCN(CC(=O)O)CC2)C(N)=O)NC(=O)[C@H](CC(N)=O)NC(=O)[C@H](Cc2c[nH]c3ccccc23)NC(=O)[C@H](CCC(N)=O)NC(=O)[C@H](CC(C)C)NC(=O)[C@H](Cc2c[nH]c3ccccc23)NC1=O) [Cpd #50] .
Solution: 8.31

A. Ac-MSDCWLQ[Phe(4-CF3)]NCPFD[dK](DOTA)-NH2 (disulfide 4-10) [Cpd #65]
B. Ac-SDCWLQWNCPFD[dK]([γGlu-DOTA])-NH2 (disulfide 3-9) [Cpd #88]
Exercise: Just tell me: smaller pKd value, A or B ? Your answer should be the label attached to the chosen record.
Solution: A
(A: 7.49, B: 8.01)
